protocolDescription: Single oral dose pharmacokinetics of metapristone in beagle dogs, non-compartmental analysis
Assay type: in vivo
studyConditions: beagle, dog, plasma, po; male dogs, p.o. 11.25 mg/kg

{"compoundString": "CC#C[C@]1(O)CC[C@H]2[C@@H]3CCC4=CC(=O)CCC4=C3[C@@H](c3ccc(NC)cc3)C[C@@]21C", "Vd/F (L/kg)": 136}

====

protocolDescription: Single-dose pharmacokinetics of metapristone in rats (p.o. and i.v.), non-compartmental analysis
Assay type: in vivo, Sprague Dawley (SD) rats
studyConditions: Sprague-Dawley, rat, plasma, po; male rats, p.o. 45 mg/kg

{"compoundString": "CC#C[C@]1(O)CC[C@H]2[C@@H]3CCC4=CC(=O)CCC4=C3[C@@H](c3ccc(NC)cc3)C[C@@]21C", "AUC(0-inf) / ng·h/mL": 2040}

====

protocolDescription: Single-dose pharmacokinetics of metapristone in rats (p.o. and i.v.), non-compartmental analysis
Format: in vivo, Sprague Dawley (SD) rats
studyConditions: Sprague-Dawley, rat, plasma, po; female rats, p.o. 22.5 mg/kg; read-out: MRT (0-t)

{"molecule": "CC#C[C@]1(O)CC[C@H]2[C@@H]3CCC4=CC(=O)CCC4=C3[C@@H](c3ccc(NC)cc3)C[C@@]21C [metapristone, N-monodemethyl mifepristone]", "MRT last [h]": 14.4}

====

protocolDescription: Single-dose pharmacokinetics of metapristone in rats (p.o. and i.v.), non-compartmental analysis
Assay type: in vivo, Sprague Dawley (SD) rats
studyConditions: Sprague-Dawley, rat, plasma, po; male rats, p.o. 22.5 mg/kg; read-out: T max

{"compoundString": "CC#C[C@]1(O)CC[C@H]2[C@@H]3CCC4=CC(=O)CCC4=C3[C@@H](c3ccc(NC)cc3)C[C@@]21C", "unitsOfMeasure": "h", "Tmax": 5.7}

====

protocolDescription: Single-dose pharmacokinetics of metapristone in rats (p.o. and i.v.), non-compartmental analysis
Format: in vivo, Sprague Dawley (SD) rats
studyConditions: Sprague-Dawley, rat, plasma, po; male rats, p.o. 45 mg/kg; read-out: V d /F
Protocol: For pharmacokinetic study, rats were fasted overnight with free access to water using procedures reported previously. Ninety-six SD rats (forty-eight males and forty-eight females) were randomly divided into eight single-dose groups. […] The plasma samples obtained by centrifugation at 4000 g for 10 min and stored at −80 °Cuntil analysis. […] Metapristone was then separated and analyzed by the LC/MS/MS method according to the previously described procedures. […]
resultType: Vd/F (L/kg)

{"compoundString": "CC#C[C@]1(O)CC[C@H]2[C@@H]3CCC4=CC(=O)CCC4=C3[C@@H](c3ccc(NC)cc3)C[C@@]21C", "unitsOfMeasure": "L/kg", "measurement": 768}

====

protocolDescription: Single-dose pharmacokinetics of metapristone in rats (p.o. and i.v.), non-compartmental analysis
Assay type: in vivo, Sprague Dawley (SD) rats
studyConditions: Sprague-Dawley, rat, plasma, iv; female rats, i.v. 10 mg/kg

{"compoundString": "CC#C[C@]1(O)CC[C@H]2[C@@H]3CCC4=CC(=O)CCC4=C3[C@@H](c3ccc(NC)cc3)C[C@@]21C", "Cmax": "6050 ng/mL"}

====

protocolDescription: Single-dose pharmacokinetics of metapristone in rats (p.o. and i.v.), non-compartmental analysis
Format: in vivo, Sprague Dawley (SD) rats
studyConditions: Sprague-Dawley, rat, plasma, po; female rats, p.o. 90 mg/kg; read-out: T max

{"compound": "CC#C[C@]1(O)CC[C@H]2[C@@H]3CCC4=CC(=O)CCC4=C3[C@@H](c3ccc(NC)cc3)C[C@@]21C [metapristone, N-monodemethyl mifepristone]", "Tmax / h": 7.58}

====

protocolDescription: Single oral dose pharmacokinetics of metapristone in beagle dogs, non-compartmental analysis
Assay type: in vivo
studyConditions: beagle, dog, plasma, po; female dogs, p.o. 22.5 mg/kg

{"compoundString": "CC#C[C@]1(O)CC[C@H]2[C@@H]3CCC4=CC(=O)CCC4=C3[C@@H](c3ccc(NC)cc3)C[C@@]21C", "Vd/F / L/kg": 89.2}

====

protocolDescription: Single oral dose pharmacokinetics of metapristone in beagle dogs, non-compartmental analysis
Assay type: in vivo
studyConditions: beagle, dog, plasma, po; female dogs, p.o. 11.25 mg/kg

{"compoundString": "CC#C[C@]1(O)CC[C@H]2[C@@H]3CCC4=CC(=O)CCC4=C3[C@@H](c3ccc(NC)cc3)C[C@@]21C", "AUC(0-t) (ng·h/mL)": 1280}

====

protocolDescription: Single-dose pharmacokinetics of metapristone in rats (p.o. and i.v.), non-compartmental analysis
Format: in vivo, Sprague Dawley (SD) rats
studyConditions: Sprague-Dawley, rat, plasma, po; female rats, p.o. 90 mg/kg
Procedure: For pharmacokinetic study, rats were fasted overnight with free access to water using procedures reported previously. Ninety-six SD rats (forty-eight males and forty-eight females) were randomly divided into eight single-dose groups. […] The plasma samples obtained by centrifugation at 4000 g for 10 min and stored at −80 °Cuntil analysis. […] Metapristone was then separated and analyzed by the LC/MS/MS method according to the previously described procedures. […]

{"compoundString": "CC#C[C@]1(O)CC[C@H]2[C@@H]3CCC4=CC(=O)CCC4=C3[C@@H](c3ccc(NC)cc3)C[C@@]21C", "Cmax [ng/mL]": 790}

====

protocolDescription: Single-dose pharmacokinetics of metapristone in rats (p.o. and i.v.), non-compartmental analysis
Type: in vivo, Sprague Dawley (SD) rats
studyConditions: Sprague-Dawley, rat, plasma, po; female rats, p.o. 90 mg/kg; read-out: MRT (0-t)
resultType: MRT last

{"compound": "CC#C[C@]1(O)CC[C@H]2[C@@H]3CCC4=CC(=O)CCC4=C3[C@@H](c3ccc(NC)cc3)C[C@@]21C [metapristone, N-monodemethyl mifepristone]", "measurement": "15.6 h"}

====

protocolDescription: Single-dose pharmacokinetics of metapristone in rats (p.o. and i.v.), non-compartmental analysis
Type: in vivo, Sprague Dawley (SD) rats
studyConditions: female, Sprague-Dawley, rat, plasma, po, 45 mg/kg, female rats, p.o. 45 mg/kg; read-out: CL/F (converted)
Description: For pharmacokinetic study, rats were fasted overnight with free access to water using procedures reported previously. Ninety-six SD rats (forty-eight males and forty-eight females) were randomly divided into eight single-dose groups. […] The plasma samples obtained by centrifugation at 4000 g for 10 min and stored at −80 °Cuntil analysis. […] Metapristone was then separated and analyzed by the LC/MS/MS method according to the previously described procedures. […]

{"compoundString": "CC#C[C@]1(O)CC[C@H]2[C@@H]3CCC4=CC(=O)CCC4=C3[C@@H](c3ccc(NC)cc3)C[C@@]21C", "unitsOfMeasure": "mL/min/kg", "CL/F": 87.5}

====

protocolDescription: Single-dose pharmacokinetics of metapristone in rats (p.o. and i.v.), non-compartmental analysis
Format: in vivo, Sprague Dawley (SD) rats
studyConditions: Sprague-Dawley, rat, plasma, po; male rats, p.o. 22.5 mg/kg; read-out: F

{"compoundString": "CC#C[C@]1(O)CC[C@H]2[C@@H]3CCC4=CC(=O)CCC4=C3[C@@H](c3ccc(NC)cc3)C[C@@]21C", "unitsOfMeasure": "%", "bioavailability": 28.7}

====

protocolDescription: Single oral dose pharmacokinetics of metapristone in beagle dogs, non-compartmental analysis
Assay type: in vivo
studyConditions: beagle, dog, plasma, po; female dogs, p.o. 5.6 mg/kg

{"compoundString": "CC#C[C@]1(O)CC[C@H]2[C@@H]3CCC4=CC(=O)CCC4=C3[C@@H](c3ccc(NC)cc3)C[C@@]21C", "AUC(0-inf)": "580 ng·h/mL"}

====

protocolDescription: Single-dose pharmacokinetics of metapristone in rats (p.o. and i.v.), non-compartmental analysis
Format: in vivo, Sprague Dawley (SD) rats
studyConditions: Sprague-Dawley, rat, plasma, po; male rats, p.o. 90 mg/kg
resultType: Cmax

{"compoundString": "CC#C[C@]1(O)CC[C@H]2[C@@H]3CCC4=CC(=O)CCC4=C3[C@@H](c3ccc(NC)cc3)C[C@@]21C", "resultType": "Cmax", "measurement": "550 ng/mL"}

====

protocolDescription: Single-dose pharmacokinetics of metapristone in rats (p.o. and i.v.), non-compartmental analysis
Format: in vivo, Sprague Dawley (SD) rats
studyConditions: Sprague-Dawley, rat, plasma, po; male rats, p.o. 90 mg/kg; read-out: MRT (0-t)
resultType: MRT last

{"compound": "CC#C[C@]1(O)CC[C@H]2[C@@H]3CCC4=CC(=O)CCC4=C3[C@@H](c3ccc(NC)cc3)C[C@@]21C [metapristone, N-monodemethyl mifepristone]", "resultType": "MRT last", "measurement": "12.8 h"}

====

protocolDescription: Single oral dose pharmacokinetics of metapristone in beagle dogs, non-compartmental analysis
Format: in vivo
studyConditions: beagle, dog, plasma, po; female dogs, p.o. 5.6 mg/kg

{"compound": "CC#C[C@]1(O)CC[C@H]2[C@@H]3CCC4=CC(=O)CCC4=C3[C@@H](c3ccc(NC)cc3)C[C@@]21C [metapristone, N-monodemethyl mifepristone]", "unitsOfMeasure": "L/kg", "Vd/F": 126}

Values were extracted from paper PMC5719405.
